- Test system: HC21T spheroid line
- EXPERIMENT_SUMMARY: Titration experiment, growth promotion (GEI)
- Assay type: cell-based, human
PROPERTY_LABEL: pEC50
The value called pEC50 is obtained by taking minus log10 of the concentration in mol/L.

Query: Entry `CCNC(=O)[C@H]1O[C@@H](n2cnc3c(N)ncnc32)[C@H](O)[C@@H]1O` has what pEC50?
Response: 6.71
